target: AT4 receptor (Bos taurus); construct: from tissue; host or cells: bovine adrenal gland membranes; test: AT4 radioreceptor assay, ^125I-Ang IV binding to bovine adrenal membranes; settings: bovine adrenal membranes, synthetic peptides; read-out: affinity in competing for ^125I-Ang IV binding
Sequence (F1N1Q8 1-1022): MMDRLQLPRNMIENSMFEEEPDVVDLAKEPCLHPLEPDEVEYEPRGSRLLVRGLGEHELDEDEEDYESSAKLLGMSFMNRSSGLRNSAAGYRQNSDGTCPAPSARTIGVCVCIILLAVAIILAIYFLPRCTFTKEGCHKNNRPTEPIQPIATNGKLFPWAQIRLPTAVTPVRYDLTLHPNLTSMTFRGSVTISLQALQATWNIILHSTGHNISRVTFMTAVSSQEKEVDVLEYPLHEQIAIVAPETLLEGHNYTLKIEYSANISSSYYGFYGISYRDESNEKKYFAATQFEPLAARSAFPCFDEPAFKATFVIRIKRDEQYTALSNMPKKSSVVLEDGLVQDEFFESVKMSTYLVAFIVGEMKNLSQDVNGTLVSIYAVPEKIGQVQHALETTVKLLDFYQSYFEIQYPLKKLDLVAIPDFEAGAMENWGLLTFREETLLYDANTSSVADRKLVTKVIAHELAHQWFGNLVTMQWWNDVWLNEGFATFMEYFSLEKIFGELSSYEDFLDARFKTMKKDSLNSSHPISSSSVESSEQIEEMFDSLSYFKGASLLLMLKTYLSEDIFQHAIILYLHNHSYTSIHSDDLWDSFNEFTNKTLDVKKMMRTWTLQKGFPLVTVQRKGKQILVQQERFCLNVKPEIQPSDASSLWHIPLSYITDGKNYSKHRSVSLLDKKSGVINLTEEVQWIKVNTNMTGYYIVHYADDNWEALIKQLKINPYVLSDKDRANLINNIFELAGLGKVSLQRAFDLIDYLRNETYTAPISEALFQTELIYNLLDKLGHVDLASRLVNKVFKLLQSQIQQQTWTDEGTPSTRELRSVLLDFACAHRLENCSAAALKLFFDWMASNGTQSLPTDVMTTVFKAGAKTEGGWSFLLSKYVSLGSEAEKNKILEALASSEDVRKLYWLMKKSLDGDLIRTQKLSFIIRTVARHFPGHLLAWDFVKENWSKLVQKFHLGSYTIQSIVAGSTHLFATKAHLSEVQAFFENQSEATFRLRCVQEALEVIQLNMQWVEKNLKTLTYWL
Where no end group is shown, it is not given here.
readout type: Ki

Query :: Find Ki (AT4 receptor (Bos taurus)) for the entry KYLPGPLQ
Result :: 1 to 5 nM

----------
target: IRAP (Homo sapiens, UniProt Q9UIQ6); construct: expressed in transfected cells; host or cells: HEK 293T cells (solubilised membrane protein); assay: Degradation of peptides by IRAP expressed in HEK 293T cells, HPLC with mass spectrometric detection; format: biochemical; conditions: 37° C., hIRAP transfected HEK 293T membranes; (=UT) equals untransfected control cells
Sequence (Q9UIQ6 whole entry): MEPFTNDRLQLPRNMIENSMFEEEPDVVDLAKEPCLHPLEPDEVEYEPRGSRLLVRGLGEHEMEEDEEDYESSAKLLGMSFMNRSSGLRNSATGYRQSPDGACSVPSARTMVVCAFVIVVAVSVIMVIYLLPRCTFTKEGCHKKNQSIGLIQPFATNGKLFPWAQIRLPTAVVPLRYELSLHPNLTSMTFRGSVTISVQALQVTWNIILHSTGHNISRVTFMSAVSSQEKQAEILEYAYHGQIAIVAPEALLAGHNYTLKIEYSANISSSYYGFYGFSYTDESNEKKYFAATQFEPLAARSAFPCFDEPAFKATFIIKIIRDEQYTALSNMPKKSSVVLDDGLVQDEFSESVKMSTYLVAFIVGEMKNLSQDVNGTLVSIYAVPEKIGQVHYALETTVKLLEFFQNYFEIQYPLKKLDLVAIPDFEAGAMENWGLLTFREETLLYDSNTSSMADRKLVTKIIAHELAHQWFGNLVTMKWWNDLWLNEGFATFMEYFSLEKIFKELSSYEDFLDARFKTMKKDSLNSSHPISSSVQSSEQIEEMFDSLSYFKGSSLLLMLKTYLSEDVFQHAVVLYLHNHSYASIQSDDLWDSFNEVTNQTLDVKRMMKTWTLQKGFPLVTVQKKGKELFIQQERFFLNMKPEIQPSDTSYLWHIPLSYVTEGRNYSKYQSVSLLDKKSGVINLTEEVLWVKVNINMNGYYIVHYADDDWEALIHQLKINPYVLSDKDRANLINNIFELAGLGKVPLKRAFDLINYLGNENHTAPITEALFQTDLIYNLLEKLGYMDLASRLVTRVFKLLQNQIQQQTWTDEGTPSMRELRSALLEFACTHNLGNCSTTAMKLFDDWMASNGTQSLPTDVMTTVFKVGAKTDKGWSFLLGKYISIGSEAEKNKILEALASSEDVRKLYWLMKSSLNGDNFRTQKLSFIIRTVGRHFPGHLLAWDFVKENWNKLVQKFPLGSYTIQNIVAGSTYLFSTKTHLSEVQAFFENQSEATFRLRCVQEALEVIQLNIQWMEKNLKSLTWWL
Where no end group is shown, it is not given here.
readout type: Substrate disappearance over 4 hr

Below, 4 substances whose answers are already recorded.
α-Endorphin (YGGFMTSEKSQTPLVT) [16 residues, first five identical to met-enkephalin] : None
Ang I: angiotensin peptide (DRVYIHPFHL) : None
angiotensin II (DRVYIHPF) [Ang II] : None
α-neo-Endorphin (YGGFLRKYPK) [opioid peptide, 10 residues] : 9%

Next:
Query :: Give the measured Substrate disappearance over 4 hr of LVVYPWTQRF .
Result :: 14% (=UT)

----------
target: IRAP (Homo sapiens)
readout type: pKi
Quick note: pKi values are minus log10 of concentrations in mol/L.

Query :: Which pKi reading was recorded for the compound CC(C)[C@H](N)CN[C@@H](Cc1ccc(O)cc1)C(=O)N[C@H](CN[C@@H](Cc1c[nH]cn1)C(=O)N1CCC[C@H]1C(=O)N[C@@H](Cc1ccccc1)C(=O)O)C(C)C [Divalinal - Ang IV] ?
Result :: 5.65
